Hello, the source for this data is patent US10004732B2, in case you need it.

Exercise: state measured Assay M RLM CI(int) for each of the compounds provided.
Assay: Microsomal clearance assay (M)
Conditions: intrinsic clearance in rat liver microsomes
Answers are plain numbers, in µL/min/mg.

Cc1ccc(S(=O)(=O)NCC(C)(C)O)cc1-c1cnc(N)c(-c2cnn(CCN(C)C)c2)n1 [Example 142] : 34
Cc1ncc(-c2nc(-c3cc(S(=O)(=O)NCCCO)c(F)cc3C)cnc2N)s1 [Example 113] : 39

Consider the additional compound presented here.
Task: Report measured Assay M RLM CI(int); entry is Cc1ccc(S(=O)(=O)NC2CC3(CC(O)C3)C2)cc1-c1cnc(N)c(-c2cn(C)nc2C)n1 (stereo not drawn) [Example 74]
Result: 30

====

Target: PI 3-kinase gamma (Homo sapiens)
Assay: TR-FRET Adapta assay, assay E
Assay type: biochemical
Conditions: read-out: Assay E PI3Kγ IC50
I'd be grateful if you could share measured pIC50 for these entries.
Give bare numbers, as −log10 of the molar value.

Cc1cc(-c2nc(-c3cc(S(=O)(=O)NC[C@@H]4CCNC4)ccc3C)cnc2N)ccn1 : 7.05

Need pIC50 for each of these compounds.
1. Cc1ccc(S(=O)(=O)NC2CCC(F)(F)CC2)cc1-c1cnc(N)c(-c2cnn(C)c2)n1
2. Cc1ncc(-c2nc(-c3cc(S(=O)(=O)NCCCO)c(F)cc3C)cnc2N)s1
3. Cc1ccc(S(=O)(=O)NCC2(C)COC2)cc1-c1cnc(N)c(-c2cn(C)nc2C)n1
4. Cc1ccc(S(=O)(=O)N[C@H]2CC[C@H](O)CC2)cc1-c1cnc(N)c(-c2cccnc2)n1

Result:
[7.77, 8.10, 8.00, 7.36]

====

Target: mTOR (Homo sapiens, UniProt P42345)
Assay: Lanthascreen kinase binding assay, assay G
Details: read-out: Assay G mTOR IC50
measured.property: IC50

Check out these entries, answers already filled in.
Cc1ccc(S(=O)(=O)NOCCN(C)C)cc1-c1cnc(N)c(-n2cncn2)n1 [Example 112.2] : > 10 µM
Cc1cc(-c2nc(-c3cc(S(=O)(=O)NC4CCNC(=O)C4)ccc3C)cnc2N)ccn1 (stereo not shown) [Example 134] : > 9.1 µM
Cc1ccc(S(=O)(=O)N2CC(C)(O)C2)cc1-c1cnc(N)c(-n2cncn2)n1 [Example 127.46] : > 9.1 µM

# context switch: different molecule, same IC50
Task: Supply measured IC50 of Cc1ccc(S(=O)(=O)NCC2CCCOC2)cc1-c1cnc(N)c(-n2cncn2)n1 (stereo not shown) [Example 127.19] in your reply.
Result: > 10 µM

====

Target: PI 3-kinase gamma (Homo sapiens, UniProt P48736)
Sequence (P48736 whole entry): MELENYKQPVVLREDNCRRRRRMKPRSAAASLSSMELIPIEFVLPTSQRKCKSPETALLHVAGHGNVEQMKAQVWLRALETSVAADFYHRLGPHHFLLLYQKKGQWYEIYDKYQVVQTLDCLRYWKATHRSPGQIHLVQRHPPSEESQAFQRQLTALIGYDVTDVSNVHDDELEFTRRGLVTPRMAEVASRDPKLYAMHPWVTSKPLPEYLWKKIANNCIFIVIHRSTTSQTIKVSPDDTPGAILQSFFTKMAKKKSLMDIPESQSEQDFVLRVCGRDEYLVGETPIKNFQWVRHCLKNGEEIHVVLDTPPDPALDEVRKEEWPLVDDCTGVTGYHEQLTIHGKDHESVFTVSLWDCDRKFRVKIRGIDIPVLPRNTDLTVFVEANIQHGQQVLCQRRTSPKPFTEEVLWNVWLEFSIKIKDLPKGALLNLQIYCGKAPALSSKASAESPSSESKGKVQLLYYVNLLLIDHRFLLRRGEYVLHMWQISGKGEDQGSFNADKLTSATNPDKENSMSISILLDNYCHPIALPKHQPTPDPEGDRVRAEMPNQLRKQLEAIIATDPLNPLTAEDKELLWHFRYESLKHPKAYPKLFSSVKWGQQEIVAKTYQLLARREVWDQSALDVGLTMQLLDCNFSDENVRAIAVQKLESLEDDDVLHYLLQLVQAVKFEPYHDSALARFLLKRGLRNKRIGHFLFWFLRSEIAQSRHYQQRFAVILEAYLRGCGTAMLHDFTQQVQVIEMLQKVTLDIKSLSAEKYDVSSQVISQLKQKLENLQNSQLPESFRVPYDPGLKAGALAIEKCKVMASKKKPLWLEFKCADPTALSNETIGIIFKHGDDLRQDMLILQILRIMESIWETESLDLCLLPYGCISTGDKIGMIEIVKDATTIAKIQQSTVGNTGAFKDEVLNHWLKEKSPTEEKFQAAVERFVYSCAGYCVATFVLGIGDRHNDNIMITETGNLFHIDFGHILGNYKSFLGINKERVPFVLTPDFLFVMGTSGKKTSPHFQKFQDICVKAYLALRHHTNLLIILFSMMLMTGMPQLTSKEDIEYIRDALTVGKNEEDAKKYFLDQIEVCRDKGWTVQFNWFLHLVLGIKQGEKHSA
Experiment: Cellular U937 AKT assay K1 (MSD)
Format: cell-based
Settings: U937 cells, K1 format; read-out: Assay K1 PI3Kγ IC50
measured.property: IC50
Enter the number, and then the unit.

Cc1csc(-c2nc(-c3cc(S(=O)(=O)NCC(C)(C)O)ccc3C)cnc2N)n1 : 98 nM

Please state, for each entry, its recorded IC50.
1. Cc1ccc(S(=O)(=O)N[C@H]2CC[C@H](O)CC2)cc1-c1cnc(N)c(-c2cccnc2)n1
2. Cc1noc(-c2nc(-c3cc(S(=O)(=O)N[C@H]4CC[C@H](O)CC4)ccc3C)cnc2N)n1
3. Cc1ccc(S(=O)(=O)NC2(CO)CC2)cc1-c1cnc(N)c(-n2cncn2)n1

Result:
164 nM
147 nM
200 nM

====

Target: PI 3-kinase delta (Homo sapiens)
Sequence (O00329 whole entry): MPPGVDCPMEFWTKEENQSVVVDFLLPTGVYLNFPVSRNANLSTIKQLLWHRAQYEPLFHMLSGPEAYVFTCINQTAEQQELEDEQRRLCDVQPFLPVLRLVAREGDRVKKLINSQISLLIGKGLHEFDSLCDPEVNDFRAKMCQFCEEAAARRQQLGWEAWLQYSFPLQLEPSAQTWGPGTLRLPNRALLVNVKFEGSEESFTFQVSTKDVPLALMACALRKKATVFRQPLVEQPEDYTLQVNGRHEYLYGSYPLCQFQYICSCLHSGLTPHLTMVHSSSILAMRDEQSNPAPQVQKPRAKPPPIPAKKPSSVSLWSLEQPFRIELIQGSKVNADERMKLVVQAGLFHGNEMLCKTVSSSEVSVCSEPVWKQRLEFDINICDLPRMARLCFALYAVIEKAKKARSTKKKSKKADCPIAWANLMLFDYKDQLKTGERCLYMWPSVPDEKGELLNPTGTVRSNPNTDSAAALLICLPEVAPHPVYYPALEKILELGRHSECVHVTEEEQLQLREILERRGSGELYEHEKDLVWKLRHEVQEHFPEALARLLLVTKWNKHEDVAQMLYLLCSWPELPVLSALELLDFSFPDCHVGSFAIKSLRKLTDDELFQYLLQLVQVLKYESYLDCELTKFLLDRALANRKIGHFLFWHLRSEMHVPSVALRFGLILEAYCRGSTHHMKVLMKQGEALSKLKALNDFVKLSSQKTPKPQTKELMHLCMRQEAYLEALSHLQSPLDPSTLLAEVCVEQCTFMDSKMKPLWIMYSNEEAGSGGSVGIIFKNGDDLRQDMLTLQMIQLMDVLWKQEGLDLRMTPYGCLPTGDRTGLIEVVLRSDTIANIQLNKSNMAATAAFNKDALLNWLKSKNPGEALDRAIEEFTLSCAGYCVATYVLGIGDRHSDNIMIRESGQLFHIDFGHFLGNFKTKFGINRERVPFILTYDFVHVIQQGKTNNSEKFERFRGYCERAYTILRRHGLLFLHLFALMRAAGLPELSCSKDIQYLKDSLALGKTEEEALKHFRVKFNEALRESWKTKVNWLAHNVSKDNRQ
Sequence (P27986 461-568 partner): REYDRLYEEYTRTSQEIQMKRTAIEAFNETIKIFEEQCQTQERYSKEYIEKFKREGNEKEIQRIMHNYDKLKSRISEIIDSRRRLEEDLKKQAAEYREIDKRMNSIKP
Test: TR-FRET Adapta assay, assay F
Settings: read-out: Assay F PI3Kδ IC50
Structures can show the parent of a compound that is named as a salt.
Would you mind telling me the reported IC50 of each entry?
One number for each entry, in nM.

Cc1cc(-c2nc(-c3cc(S(=O)(=O)N[C@H]4CC[C@@H](O)CC4)ccc3C)cnc2N)ccn1 : 480
CCN1CCC[C@@H]1CNS(=O)(=O)c1ccc(C)c(-c2cnc(N)c(-c3cn(C)nc3C)n2)c1 [Example 27, hydrochloride] : 70
Cc1ccc(S(=O)(=O)NCCC(C)(C)O)cc1-c1cnc(N)c(-c2ccc(C3CC3)s2)n1 : 70
Cc1ncc(-c2nc(-c3cc(S(=O)(=O)NCC4CCCCO4)ccc3C)cnc2N)s1 (stereo not drawn) : 100

Now consider a different compound.
Task: # return IC50 for Cc1cc(-c2nc(-c3cc(S(=O)(=O)NCCC(C)(C)O)ccc3C)cnc2N)on1 , test system: PI 3-kinase delta (Homo sapiens)
Result: 840

====

Molecular target: PI 3-kinase beta (Homo sapiens, UniProt P42338)
Assay: Kinase Glo Luminescent Kinase Assay (Kglo), assay B
Type: biochemical
Conditions: read-out: Assay B PI3Kβ IC50
Sequence (P42338 whole entry, one chain of several): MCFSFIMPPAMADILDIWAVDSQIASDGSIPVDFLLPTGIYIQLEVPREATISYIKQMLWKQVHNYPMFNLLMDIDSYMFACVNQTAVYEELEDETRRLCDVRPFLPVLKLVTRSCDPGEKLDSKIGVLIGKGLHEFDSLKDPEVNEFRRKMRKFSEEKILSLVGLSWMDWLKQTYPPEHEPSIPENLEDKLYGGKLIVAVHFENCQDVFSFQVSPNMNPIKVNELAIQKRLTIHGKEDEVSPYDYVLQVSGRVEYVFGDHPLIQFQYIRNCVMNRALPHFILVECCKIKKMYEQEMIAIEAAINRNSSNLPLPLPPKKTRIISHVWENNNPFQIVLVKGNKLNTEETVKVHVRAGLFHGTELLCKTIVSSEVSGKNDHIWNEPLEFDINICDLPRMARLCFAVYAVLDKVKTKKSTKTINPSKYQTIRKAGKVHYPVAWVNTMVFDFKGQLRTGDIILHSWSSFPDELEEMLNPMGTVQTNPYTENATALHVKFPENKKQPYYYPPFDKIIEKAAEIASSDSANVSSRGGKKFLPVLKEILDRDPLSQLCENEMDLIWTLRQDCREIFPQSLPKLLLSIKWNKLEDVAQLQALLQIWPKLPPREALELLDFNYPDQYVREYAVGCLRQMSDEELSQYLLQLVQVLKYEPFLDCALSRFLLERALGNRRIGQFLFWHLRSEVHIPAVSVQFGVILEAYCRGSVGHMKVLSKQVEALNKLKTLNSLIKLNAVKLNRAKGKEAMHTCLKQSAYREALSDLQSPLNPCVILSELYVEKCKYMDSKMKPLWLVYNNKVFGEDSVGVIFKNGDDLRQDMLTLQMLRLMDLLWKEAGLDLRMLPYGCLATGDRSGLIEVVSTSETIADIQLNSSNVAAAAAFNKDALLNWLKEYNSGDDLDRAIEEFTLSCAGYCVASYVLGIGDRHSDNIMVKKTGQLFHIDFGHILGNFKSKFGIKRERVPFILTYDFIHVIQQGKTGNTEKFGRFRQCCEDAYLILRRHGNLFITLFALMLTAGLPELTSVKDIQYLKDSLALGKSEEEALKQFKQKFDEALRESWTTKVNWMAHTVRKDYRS
pIC50: −log10 of the molar value.
# binarize pIC50: threshold 6 inclusive, high side met, low side not met

Example entries begin here.
Cc1ccc(S(=O)(=O)NCCC(C)(C)O)cc1-c1cnc(N)c(-c2cnn(C)c2C)n1 : not met
Cc1cc(-c2nc(-c3cc(S(=O)(=O)N4CC5(CNC5)C4)ccc3C)cnc2N)ccn1 : not met
Cc1ccc(S(=O)(=O)NCC2CNCCO2)cc1-c1cnc(N)c(-c2cn(C)nc2C)n1 (stereo not drawn) : not met
Cc1ccc(S(=O)(=O)N[C@H]2CC[C@H](O)CC2)cc1-c1cnc(N)c(-c2ccncc2)n1 : not met
Cc1ccc(S(=O)(=O)NCCC(C)(C)O)cc1-c1cnc(N)c(-c2cccnc2F)n1 : not met

Task: Given Cc1ccc(S(=O)(=O)N[C@H]2CCOC2)cc1-c1cnc(N)c(-n2cncn2)n1 , state whether its pIC50 is at least 6.
Result: not met

Task: Could you tell me if the measured pIC50 of Cc1ccc(S(=O)(=O)N2CCC(F)(F)CC2)cc1-c1cnc(N)c(-n2cncn2)n1 reaches 6 or more?
Result: not met

Task: I'd appreciate it if you could say whether Cc1cc(-c2nc(-c3cc(S(=O)(=O)NCCN(C)C)ccc3C)cnc2N)ccn1 has pIC50 at least equal to 6.
Result: not met

Task: Does the compound Cc1ccc(S(=O)(=O)NCCC(C)(C)O)cc1-c1cnc(N)c(-n2ccnc2)n1 have recorded pIC50 that is 6 or more?
Result: not met

Task: Item Cc1ncc(-c2nc(-c3cc(S(=O)(=O)NCC4COCCN4C)ccc3C)cnc2N)s1 (stereo not drawn) with pIC50 of 6 or above?
Result: met

Task: Has Cc1ccc(S(=O)(=O)NCC2(CO)COC2)cc1-c1cnc(N)c(-c2cn(C)nc2C)n1 a recorded pIC50 greater than or equal to 6?
Result: met

====

Molecular target: PI 4-kinase beta (Homo sapiens)
Sequence (Q9UBF8 whole entry): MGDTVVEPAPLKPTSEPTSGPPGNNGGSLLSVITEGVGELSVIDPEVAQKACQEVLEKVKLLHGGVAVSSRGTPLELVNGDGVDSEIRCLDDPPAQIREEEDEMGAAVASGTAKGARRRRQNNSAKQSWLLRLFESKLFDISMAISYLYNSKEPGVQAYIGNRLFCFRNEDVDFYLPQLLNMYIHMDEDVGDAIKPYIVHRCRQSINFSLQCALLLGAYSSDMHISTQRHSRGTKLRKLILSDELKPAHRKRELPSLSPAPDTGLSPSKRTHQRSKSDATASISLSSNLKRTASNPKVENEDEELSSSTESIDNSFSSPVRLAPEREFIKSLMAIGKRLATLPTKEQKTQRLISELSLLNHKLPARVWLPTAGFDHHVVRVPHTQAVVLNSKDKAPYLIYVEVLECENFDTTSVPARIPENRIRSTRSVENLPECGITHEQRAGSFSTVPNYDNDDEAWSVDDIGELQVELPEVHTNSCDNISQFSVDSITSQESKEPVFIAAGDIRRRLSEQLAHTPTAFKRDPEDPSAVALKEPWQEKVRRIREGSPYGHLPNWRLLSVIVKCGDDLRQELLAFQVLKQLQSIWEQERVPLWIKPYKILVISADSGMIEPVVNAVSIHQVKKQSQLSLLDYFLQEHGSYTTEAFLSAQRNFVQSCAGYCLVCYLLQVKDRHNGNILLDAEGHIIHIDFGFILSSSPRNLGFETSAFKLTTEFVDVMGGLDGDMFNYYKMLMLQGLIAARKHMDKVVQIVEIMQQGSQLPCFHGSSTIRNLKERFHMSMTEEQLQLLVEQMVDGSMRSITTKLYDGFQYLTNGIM
Assay: Kinase Glo Luminescent Kinase Assay (Kglo), assay D
Assay type: biochemical
Details: read-out: Assay D PI4Kβ IC50
Structures can show the parent of a compound that is named as a salt.
measured.property: IC50

Cc1ccc(S(=O)(=O)N2CC(F)(F)C(F)(F)C2)cc1-c1cnc(N)c(-n2cncn2)n1 : > 10 µM

Lab note: each compound below needs its IC50 filled in.
1. Cc1ccc(S(=O)(=O)N[C@H]2CC[C@H](O)CC2)cc1-c1cnc(N)c(-c2nc(C(C)C)no2)n1
2. Cc1cn(-c2nc(-c3cc(S(=O)(=O)NCC(C)(C)O)ccc3C)cnc2N)c(C)n1
3. Cc1ccc(S(=O)(=O)NCC(C)(C)O)cc1-c1cnc(N)c(-n2cnc(CN(C)C)n2)n1 [Example 117, hydrochloride salt]

Result:
> 9.1 µM
> 10 µM
> 10 µM

====

Biological target: PI 3-kinase beta (Homo sapiens, UniProt P42338)
Test: Cellular assay I1, p-Akt (S473) in Rat-1 cells, Surefire format
Assay type: cell-based
Settings: non-asterisked data: version I1 (Surefire format), Rat-1 cells; read-out: Assay I PI3Kβ IC50
Sequence (P42338 whole entry): as the sequence (P42338 whole entry, one chain of several) above
Sequence (Q63787 whole entry partner): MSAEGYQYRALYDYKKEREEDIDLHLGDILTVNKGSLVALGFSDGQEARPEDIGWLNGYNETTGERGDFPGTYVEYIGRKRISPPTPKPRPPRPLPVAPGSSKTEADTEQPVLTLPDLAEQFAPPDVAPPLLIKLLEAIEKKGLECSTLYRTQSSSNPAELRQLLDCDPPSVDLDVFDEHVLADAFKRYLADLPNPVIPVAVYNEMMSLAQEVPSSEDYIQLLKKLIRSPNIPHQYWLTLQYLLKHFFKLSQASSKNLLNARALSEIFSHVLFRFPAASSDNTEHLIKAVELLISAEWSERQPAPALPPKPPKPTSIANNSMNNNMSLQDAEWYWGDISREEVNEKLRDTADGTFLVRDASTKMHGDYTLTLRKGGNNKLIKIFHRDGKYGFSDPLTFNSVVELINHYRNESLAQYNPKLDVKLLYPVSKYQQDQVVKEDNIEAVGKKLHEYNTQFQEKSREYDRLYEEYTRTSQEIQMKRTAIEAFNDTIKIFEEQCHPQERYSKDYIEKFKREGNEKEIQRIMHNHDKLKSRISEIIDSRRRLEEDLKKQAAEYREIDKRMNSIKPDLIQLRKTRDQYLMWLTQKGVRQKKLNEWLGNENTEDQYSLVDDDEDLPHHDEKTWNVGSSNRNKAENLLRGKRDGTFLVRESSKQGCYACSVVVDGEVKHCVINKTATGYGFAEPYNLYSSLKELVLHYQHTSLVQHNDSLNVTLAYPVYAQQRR
measured.property: IC50 (µM)
One number for each entry, in µM.

Cc1ncn(-c2nc(-c3cc(S(=O)(=O)NCC(C)(C)O)ccc3C)cnc2N)n1 [Example 25] : 1.7

// input: 3 compounds below; output: IC50 for each
1. Cc1ccc(S(=O)(=O)NCCC(C)(C)O)cc1-c1cnc(N)c(-c2cccnc2)n1 [Example 119.5]
2. Cc1ccc(S(=O)(=O)NCC2(CO)CCCCC2)cc1-c1cnc(N)c(-n2cncn2)n1 [Example 127.52]
3. Cc1ccc(S(=O)(=O)N[C@H]2C[C@H](O)C2)cc1-c1cnc(N)c(-n2cncn2)n1 [Example 71a]

Result:
1: 1.66; 2: 6.28; 3: 8.02

====

What IC50 was measured for each of the following?
Molecular target: PI 3-kinase delta (Homo sapiens)
Test: TR-FRET Adapta assay, assay F
Details: read-out: Assay F PI3Kδ IC50
Please answer in the form of a number followed by its unit of measurement.

Cc1ccc(S(=O)(=O)NCC2CCCCO2)cc1-c1cnc(N)c(-n2cncn2)n1 (stereo not drawn) : 1100 nM
Cc1cc(-c2nc(-c3cc(S(=O)(=O)NCC(C)(C)O)ccc3C)cnc2N)on1 : 1100 nM

Okay, now this compound:
Task: Answer with the recorded IC50 of Cc1ccc(S(=O)(=O)N[C@H]2CC[C@@](C)(O)CC2)cc1-c1cnc(N)c(-n2cncn2)n1 [Example 69b] only.
Result: 690 nM
